tested on: NCI-H460 lung; assay: NCI tumour cell line growth inhibition, 48 h
Exercise: for every item that follows, state its recorded TGI.

Name the reported TGI value associated with the compound O=C1NC(=O)C(c2ccccc2)=C1Nc1ccccc1
> 25 µM

Which value of TGI has been reported for CCOC(=O)[C@@H](C)C[C@H](Cc1ccccc1)NC(=O)c1csc([C@@H](C[C@H](C(C)C)N(C)C(=O)[C@@H](NC(=O)[C@H]2C[C@H](O)CCN2C)C(C)C)OC(C)=O)n1 in the records?
> 16.7 µM

What measured TGI goes with [N-]=[N+]=CC(=O)OCC1NC(=O)C(COC(=O)C=[N+]=[N-])NC1=O (stereo not drawn) ?
> 100 µM

* * *

tested on: HOP-92 NSCLC; experiment: NCI tumour cell line growth inhibition, 48 h
Kindly state TGI for each of the entries shown.
Give the value, in units of µM, as a plain number.

Recall the recorded TGI for CCOc1cc(/C=C/C(=O)C(C(=O)/C=C/c2ccc(OC(=O)CNc3nnc(C)s3)c(OCC)c2)C(=O)CNc2nnc(C)s2)ccc1OC(=O)CNc1nnc(C)s1 with HOP-92 NSCLC and state it.
6.6

Identify the measured TGI of C/C(=N/NC(=S)N1CC2CCC(CC2)C1)c1cnccn1 for HOP-92 NSCLC.
12.7

Find the measured TGI: item COC1=CC(=O)c2c(cc3c(c2O)-c2c(OC)cc4cc5c(c(O)c4c2OC(=O)CC(C)(O)C3)C(=O)CC(C)(O)C5)C1=O (centres undefined) , target or system HOP-92 NSCLC.
4.12

Form: Entry = CCCNCC(O)CNc1ccc(NCC(O)CNCCC)c2c1C(=O)c1ccccc1C2=O (centres undefined) | System = HOP-92 NSCLC | TGI = ____
6.81

Provide the documented TGI with HOP-92 NSCLC as the system for c1ccc2cc(CNCCCCNCCCNCc3ccc4ccccc4c3)ccc2c1
3.05

HOP-92 NSCLC / TGI / Cc1cc(=O)oc2cc(OC(=O)Nc3ccccc3)ccc12 : value?
75.4

Report TGI for C=C1CC(C)(COc2cc(=O)oc3ccccc23)OC1=O (centres undefined) tested on HOP-92 NSCLC.
3.54

Which TGI is reported with HOP-92 NSCLC for this entry: O=C(N/C=C/C=C/Sc1ccccc1)OCc1ccccc1 ?
52.7

Form field: TGI recorded for COC(=O)c1ccc(C)cc1C1CN=NC12Cc1cc(C)ccc1C2=O (centres undefined) with HOP-92 NSCLC (enter value)
84.7

Find TGI (HOP-92 NSCLC) for the entry NCCCNc1nc2ccc(Cl)cc2c2c(=O)c3cc(F)ccc3sc12
6.51

Form entry - test system: HOP-92 NSCLC; read-out: TGI; molecule: N#C/C(=C\c1ccc(F)cc1)n1nc2cccc(F)c2n1
9.15

Item O=C(O)C1=CN(c2ccncc2)C(c2ccco2)=CC1c1ccccc1[N+](=O)[O-] (centres undefined) with HOP-92 NSCLC - TGI?
27.7

// lookup TGI | system=HOP-92 NSCLC | key= CN(C)CC1CCCCCCCCCCCCC(CN(C)C)C1=O (centres undefined)
26.3

* * *

test system: HS 578T breast; assay: NCI tumour cell line growth inhibition, 48 h
observed.property: TGI

Would you mind telling me what TGI value was observed for CN1CCN(c2ccc3[nH]c(C4=C(O)C(=O)[C@@H]5C(=C4O)N=C(CO)N5C)nc3n2)CC1 ?
> 100 µM

Consider the compound shown here: [N-]=[N+]=CC(=O)OCC1NC(=O)C(COC(=O)C=[N+]=[N-])NC1=O (stereo not drawn) What is its recorded TGI?
> 100 µM

Recorded TGI of O=C(NCCc1ccccc1)c1cc(/C=C/c2cc(O)ccc2O)ccc1O , please.
> 40.4 µM

Could you share which TGI value was measured for CCc1ccc(Nc2cc(=O)n(C)c(SCc3ccccc3)n2)cc1 ?
> 100 µM

// returns reported TGI for input CCN(CC)C(=S)N/N=C/c1cc(OC)ccc1O
> 100 µM

Report TGI for C=C(CN1CCN(c2ccccc2C(F)(F)F)CC1)c1ccc(C(=O)Nc2ccccc2N)cc1 please.
> 100 µM

Please report the recorded TGI for Nc1nc(N)c2ncn(-c3ccccc3)c2n1 .
> 100 µM

Which value of TGI has been reported for CCOC(=O)C1(C#N)C(C#N)(C#N)C1(C#N)C#N in the records?
> 100 µM

Given the compound Cc1cccc2c1c(=O)c1c(O)cc3c(c1n2C)C=CC(C)(C)O3 , what is its reported TGI?
> 100 µM

// lookup TGI for CC(C)COP(C)(=O)C(N)(C(F)(F)F)C(F)(F)F (stereo not drawn)
> 100 µM

Form field: reported TGI of CCCn1c(=O)c2nn3c(=O)n(CCC)c(=O)c3nn2c1=O
> 100 µM

Any idea what its TGI is? The compound is CCC(C)(C)[C@H](NC(=O)[C@H]1CCCCN1C)C(=O)N(C)[C@H](C[C@@H](OC(C)=O)c1nc(C(=O)N[C@@H](Cc2ccccc2)C[C@H](C)C(=O)O)cs1)C(C)C
> 11.5 µM

Can you look up the measured TGI of COc1cc2cc3c4cc(OC)c(OC)cc4cc[n+]3c(C)c2cc1OC for me?
> 100 µM

What value of TGI has been recorded for this entry: O=C(O)c1cccc(OCCOc2cccc(C(=O)O)c2[N+](=O)[O-])c1[N+](=O)[O-]
> 100 µM

Given the entry Fc1cccc(C2SCc3nc4cc5ccccc5cc4n32)c1 (stereo not drawn) , report its measured TGI.
> 100 µM

Could you tell me which TGI is on file for CCN1C(=O)N(CC)C2C1NC(=S)N2/N=C/C=C/c1ccccc1OC (stereo not drawn) ?
> 100 µM

Please look up its TGI: COC(=O)[C@H](COC(C)(C)C)NC(=O)N[C@H](C)c1ccccc1
> 100 µM

Which TGI is reported for this compound? C/C1=C/C[C@@H](/C(C)=C/c2csc(C)n2)OC(=O)C[C@H](O)C(C)(C)C(=O)[C@H](C)[C@@H](O)[C@@H](C)CCC1
< 0.0001 µM

* * *

I'd appreciate it if you could supply TGI values for the items below.
system: HCC-2998 colon; experiment: NCI tumour cell line growth inhibition, 48 h
State the answer as a number, implicitly in µM.

// returns reported TGI for input C=C(CCC/C(C)=C/C=C/[C@H](C)CCCc1ccoc1)C[C@@H]1OC(=O)[C@H](C)[C@@H]1O
37

Would you mind telling me what TGI value was observed for O=C(CCN1CCC(CCO)CC1)Nc1ccc2c(c1)C(=O)c1ccc(NC(=O)CCN3CCC(CCO)CC3)cc1C2=O ?
88.7

Recorded TGI for O=C1/C(=C\c2ccccc2)CN(C(=O)c2ccccc2)C/C1=C\c1ccccc1 , please?
3.48

What does the data say about its TGI? Entry: Cc1cc(C)c(S(=O)(=O)N(CCCN)OCCON(CCCN)S(=O)(=O)c2c(C)cc(C)cc2C)c(C)c1
4.24

* * *

system: CAKI-1 renal; experiment: NCI tumour cell line growth inhibition, 48 h
observed.property: TGI

Entry under review: N#CCC1C2CC3C(C2=O)C13 (centres undefined) . Reported TGI?
> 100 µM

Give its TGI value. Item: [N-]=[N+]=CC(=O)OCC1NC(=O)C(COC(=O)C=[N+]=[N-])NC1=O (centres undefined)
> 100 µM

Fill in: TGI of C1=C(c2ccccc2)O[C@H](COCc2ccccc2)C(OCc2ccccc2)[C@@H]1OCc1ccccc1 (some centres undefined) is ___
> 10 µM

Please give the measured TGI for this compound: O=c1oc2ccc3ccccc3c2cc1-c1cn2c(n1)sc1ccccc12
> 100 µM

May I ask what TGI has been recorded for COc1cc2cc3c4cc(OC)c(OC)cc4cc[n+]3c(C)c2cc1OC ?
> 100 µM

What value of measured TGI is listed for O=C(Nc1ccc(I)cc1)c1cccc([N+](=O)[O-])c1O ?
> 100 µM

What does the data say about its TGI? Entry: Cc1cccc2c1c(=O)c1c(O)cc3c(c1n2C)C=CC(C)(C)O3
> 100 µM

Which TGI reading was recorded for the compound O=C(NS(=O)(=O)c1ccc(NC[C@H]2COCCO2)c([N+](=O)[O-])c1)c1ccc(N2CCN(CC3=C(c4ccc(Cl)cc4)CC4(CCC4)CC3)CC2)cc1Oc1cnc2[nH]ccc2c1 ?
5.11 µM

State the recorded TGI for this entry: CCOc1cc(/C=C/C(=O)C(C(=O)/C=C/c2ccc(OC(=O)CNc3nnc(C)s3)c(OCC)c2)C(=O)CNc2nnc(C)s2)ccc1OC(=O)CNc1nnc(C)s1
> 29 µM

Fill blank: measured TGI of the compound CCCCCCCCCCCCCCCC(=O)Nc1ccn(C2CCC(COP(=O)(O)OCC3OC(n4cc(F)c(=O)[nH]c4=O)CC3OC(C)=O)O2)c(=O)n1 (centres undefined) is ____.
> 42.5 µM

I would be grateful if you could share the reported TGI for NC(CO)c1ccc(OCc2ccccc2)cc1 (centres undefined) .
> 91.4 µM

Requested read-out: TGI. Entry: C=CCC12CCC(=O)[C@@]1(C)CC=C(O)C2=O (some centres undefined)
> 100 µM

TGI for O=c1[nH]c2ccccc2n2cc3ccccc3c12 ?
35.5 µM

Record request: TGI value, item Oc1c(Cl)c(Cl)c(O)c(CCNc2nccs2)c1Cl
29.3 µM

What value of TGI has been recorded for this entry: CCCOc1ccc(/C=N/Nc2cc(C)nc3ccc(Cl)cc23)cc1
3.2 µM

Reported TGI, compound CCCCOC(=O)NC(Nc1ccc(S(=O)(=O)Nc2ncccn2)cc1)(C(F)(F)F)C(F)(F)F : ____
> 100 µM

Which TGI value belongs to COC(=O)[C@@H](OC(C)=O)[C@@H](OC(C)=O)c1nnc2ccc(Cl)nn12 ?
> 100 µM

Recorded TGI for CCC(c1ccc(OC)cc1)C1NC(=S)NC1=O (centres undefined) , please?
> 50 µM

Consider the compound Cn1nc(-c2ccccc2)c2c(-c3ccccc3)c3cc(Cl)ccc3nc21 and give its measured TGI.
> 100 µM
